System: Con-NCI-H82 cell
EXPERIMENT_DESCRIPTION: CellTiter-Glo cell viability, Con-NCI-H82 cell (empty-vector control)
Assay type: cell-based, human
STATED_CONDITIONS: Homo sapiens, NCI-H82, NCI-H82 transfected with empty virus vector (control), intracellular ATP, read-out: inhibitory effect on Con-NCI-H82 (IC50)
Readings of pIC50 for the listed compounds
Reminder that pIC50 means the negative base-10 logarithm of the concentration expressed in mol/L.

COc1ccc2c(c1OCCCCl)CN1CCc3cc4c(cc3C1=C2)OCO4 [AB35543]
6.26

# lookup: pIC50 of COc1ccc2c(c1N1CCC(C(F)(F)F)CC1)C(C(Cl)(Cl)Cl)N1CCc3cc4c(cc3C1=C2)OCO4 (centres unmarked) [AB35514] 6.43

# lookup: pIC50 of COc1ccc2c(c1NCCc1ccccc1)C(C1CCCC1)N1CCc3cc4c(cc3C1=C2)OCO4 (centres unmarked) [AB35457] 6.02

# lookup: pIC50 of COc1ccc2c(c1OCCCBr)CN1CCc3cc4c(cc3C1=C2)OCO4 [AB35544] 6.55

# lookup: pIC50 of COc1ccc2c(c1OC)C(C(Cl)(Cl)Cl)N1CCc3cc4c(cc3C1=C2CCc1ccccc1)OCO4 (centres unmarked) [AB35444] 5.94

# lookup: pIC50 of COc1ccc2c(c1NCCc1ccccc1)C(C(Cl)(Cl)Cl)N1CCc3cc4c(cc3C1=C2)OCO4 (centres unmarked) [AB35486] 6.60

# lookup: pIC50 of COc1ccc2c(c1N1CCC(C)CC1)C(C1CCCC1)N1CCc3cc4c(cc3C1=C2)OCO4 (centres unmarked) [AB35510] 6.51

# lookup: pIC50 of [2H]C1c2c(ccc(OC)c2OC)C=C2c3cc4c(cc3CC([2H])([2H])N21)OCO4 (centres unmarked) [AB36477] 5.91

Where do these numbers come from? They come from patent US12502386B2.
